- Experiment notes: Drug metabolism in human liver microsomes assessed as compound metabolized at 1 uM after 15 mins
- Type: ADME
- Conditions: read-out: Drug metabolism

Smiles input	metabolised at 0.25 h, 1 µM
Cc1c(COc2ccccc2)nc2n1C(=O)N(c1ccc(F)cc1)CC2	21%
O=c1n(-c2ccc(F)cc2)ccc2nc(COc3ccc(F)cc3)cn12	11%
O=c1n(-c2ccc(F)cc2)ccc2nc(COc3ccccc3)cn12	14%
Cc1nc(-n2ccc3nc(COc4ccccc4)cn3c2=O)ccc1F	8%
O=C1N(c2ccc(F)cc2)CCc2nc(COc3ccc(F)cc3)cn21	3%
O=C1N(c2ccc(F)cc2)CCc2nc(COc3ccccc3)cn21	18%
Cc1nc(N2CCc3nc(COc4ccccc4)cn3C2=O)ccc1F	31%

====

- Experiment notes: Drug metabolism in rat liver microsomes assessed as compound metabolized at 1 uM after 15 mins
- Type: ADME
- Conditions: read-out: Drug metabolism
So basically, if metabolised at 0.25 h, 1 µM comes in under 50% it's T, and if it's 50% or more it's F.

Smiles input	Label
Cc1c(COc2ccccc2)nc2n1C(=O)N(c1ccc(F)cc1)CC2	T
CN(C)c1cccc(-n2ccc3nc(COc4ccccc4)cn3c2=O)n1	F
O=c1n(-c2ccc(F)cc2)ccc2nc(COc3cccc(F)c3)cn12	T
O=C1N(c2ccc(F)cc2)CCc2nc(COc3ccc(F)cc3)cn21	T

====

- Experiment notes: Drug metabolism in human liver microsomes assessed as compound metabolized at 1 uM after 15 mins
- Type: ADME
- Conditions: read-out: Drug metabolism
This listing pairs compounds with measured metabolised at 0.25 h, 1 µM.

Smiles input	Measure unit	metabolised at 0.25 h, 1 µM
O=C1N(c2cccc(F)c2)CCc2nc(COc3ccccc3)cn21	%	20
Cc1ccc(N2CCc3nc(COc4ccccc4)cn3C2=O)nc1	%	35
O=C1N(c2ccc(F)cn2)CCc2nc(COc3ccccc3)cn21	%	1
O=c1n(-c2ccc(F)cc2)ccc2nc(COc3cccc(F)c3)cn12	%	13
CN(C)c1cccc(-n2ccc3nc(COc4ccccc4)cn3c2=O)n1	%	66
O=c1n(-c2cccc(F)c2)ccc2nc(COc3ccccc3)cn12	%	47
O=C1N(c2ccc(F)cc2)CCc2nc(COc3cccc(F)c3)cn21	%	0
